pIC50 listing for selected compounds.
ASSAYED TARGET: human Nav1.8 (Homo sapiens (Human), UniProt Q9Y5Y9)
Sequence (Q9Y5Y9 whole entry): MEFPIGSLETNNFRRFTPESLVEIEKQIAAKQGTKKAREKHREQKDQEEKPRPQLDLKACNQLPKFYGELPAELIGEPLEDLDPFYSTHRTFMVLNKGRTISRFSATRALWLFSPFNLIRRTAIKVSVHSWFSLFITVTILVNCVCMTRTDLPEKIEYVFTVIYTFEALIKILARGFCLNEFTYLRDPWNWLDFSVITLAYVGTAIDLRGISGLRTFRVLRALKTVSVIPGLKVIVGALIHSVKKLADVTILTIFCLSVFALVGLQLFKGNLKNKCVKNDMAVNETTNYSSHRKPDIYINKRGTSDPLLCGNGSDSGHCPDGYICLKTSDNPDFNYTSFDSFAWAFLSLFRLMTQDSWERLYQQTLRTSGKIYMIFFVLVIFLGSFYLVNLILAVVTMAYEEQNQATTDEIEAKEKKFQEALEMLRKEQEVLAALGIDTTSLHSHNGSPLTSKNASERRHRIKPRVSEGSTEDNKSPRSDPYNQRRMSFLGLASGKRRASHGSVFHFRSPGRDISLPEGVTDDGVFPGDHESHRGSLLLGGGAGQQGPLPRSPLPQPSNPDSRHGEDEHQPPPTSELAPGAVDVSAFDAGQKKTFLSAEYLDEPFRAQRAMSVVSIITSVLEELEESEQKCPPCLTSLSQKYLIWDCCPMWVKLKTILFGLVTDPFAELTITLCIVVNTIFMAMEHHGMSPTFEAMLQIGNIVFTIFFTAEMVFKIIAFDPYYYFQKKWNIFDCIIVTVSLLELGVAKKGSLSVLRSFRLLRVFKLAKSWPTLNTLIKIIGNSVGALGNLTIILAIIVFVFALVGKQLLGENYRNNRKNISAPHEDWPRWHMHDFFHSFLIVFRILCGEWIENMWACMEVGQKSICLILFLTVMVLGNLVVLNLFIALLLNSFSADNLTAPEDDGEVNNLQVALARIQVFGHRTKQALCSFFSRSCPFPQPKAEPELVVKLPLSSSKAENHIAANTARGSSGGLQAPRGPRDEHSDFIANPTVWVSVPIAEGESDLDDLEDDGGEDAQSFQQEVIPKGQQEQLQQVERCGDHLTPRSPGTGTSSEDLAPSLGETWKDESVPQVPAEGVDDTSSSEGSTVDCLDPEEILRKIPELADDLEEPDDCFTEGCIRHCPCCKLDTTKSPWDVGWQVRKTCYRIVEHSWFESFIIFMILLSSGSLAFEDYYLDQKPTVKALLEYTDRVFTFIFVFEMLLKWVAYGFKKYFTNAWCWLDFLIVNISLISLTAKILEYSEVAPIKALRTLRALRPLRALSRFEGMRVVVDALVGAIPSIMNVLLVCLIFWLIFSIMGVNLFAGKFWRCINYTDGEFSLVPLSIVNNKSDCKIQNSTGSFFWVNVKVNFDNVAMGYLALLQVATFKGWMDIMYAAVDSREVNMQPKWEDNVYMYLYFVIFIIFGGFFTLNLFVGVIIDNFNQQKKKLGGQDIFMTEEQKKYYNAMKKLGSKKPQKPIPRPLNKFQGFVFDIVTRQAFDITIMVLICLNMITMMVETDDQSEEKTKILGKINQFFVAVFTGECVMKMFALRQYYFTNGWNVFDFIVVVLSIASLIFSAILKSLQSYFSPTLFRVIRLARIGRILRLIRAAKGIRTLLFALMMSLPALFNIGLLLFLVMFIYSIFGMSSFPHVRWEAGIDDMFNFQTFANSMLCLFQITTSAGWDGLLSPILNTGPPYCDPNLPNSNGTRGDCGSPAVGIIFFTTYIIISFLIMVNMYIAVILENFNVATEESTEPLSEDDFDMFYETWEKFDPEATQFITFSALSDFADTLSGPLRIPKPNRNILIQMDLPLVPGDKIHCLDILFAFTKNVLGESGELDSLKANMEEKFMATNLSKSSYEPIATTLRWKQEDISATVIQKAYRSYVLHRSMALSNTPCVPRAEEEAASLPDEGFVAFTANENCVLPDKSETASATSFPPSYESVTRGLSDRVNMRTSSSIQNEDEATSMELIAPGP
ASSAY METHOD TEXT: Nav1.8 Qube automated patch-clamp assay
CONDITION INFO: Nav1.8 Qube Assay; human Nav1.8 channels stably expressed in HEK 293 cells
pIC50: −log10 of the molar value.
MEASUREMENT LABEL: pIC50

INSERT INTO results (compound, measurement_label, recorded_measurement) VALUES
  ('NS(=O)(=O)c1cccc(NC(=O)c2cc(C(F)(F)F)cnc2N2CCCC[C@H](F)C2)c1', 'pIC50', 6.47),
  ('Cc1nc(N2CCCCCC2)c(C(=O)Nc2cccc(S(N)(=O)=O)c2)cc1Cl', 'pIC50', 8.68),
  ('COC(=O)C1CCN(c2ncc(C(F)(F)F)cc2C(=O)Nc2cccc(S(N)(=O)=O)c2)CC1', 'pIC50', 5.79),
  ('NS(=O)(=O)c1cccc(NC(=O)c2cc(C(F)(F)F)cnc2N2CC3CC(F)(F)C3C2)c1 (single isomer, unassigned) [Example 136]', 'pIC50', 7.06),
  ('CC1CCN(c2ncc(C(F)(F)F)cc2C(=O)Nc2cccc(S(N)(=O)=O)c2)CC(C)(C)C1 (stereo not shown)', 'pIC50', 7.54),
  ('CC(C)Cc1cnc(N2CCCCC2)c(C(=O)Nc2cccc(S(N)(=O)=O)c2)c1', 'pIC50', 5.65),
  ('NS(=O)(=O)c1cccc(NC(=O)c2cc(C(F)(F)F)cnc2N2CC3CC4CC(C3)CC2C4)c1', 'pIC50', 7.92),
  ('CN1Cc2ccc(NC(=O)c3cc(C(F)(F)F)cnc3N3CCCCCC3)cc2S1(=O)=O', 'pIC50', 5.04),
  ('Cc1c(Cl)nc(N2CCCCCC2)c(C(=O)Nc2cccc(S(N)(=O)=O)c2)c1C', 'pIC50', 8.22),
  ('N#Cc1ccc(NC(=O)c2cc(C(F)(F)F)cnc2N2CCCCCC2)cc1', 'pIC50', 6.33),
  ('NS(=O)(=O)c1cccc(NC(=O)c2cnc(C3CC3)nc2N2CCCC(F)(F)CC2)c1', 'pIC50', 7.62),
  ('CS(=O)(=O)c1cccc(NC(=O)c2cc(C(F)(F)F)cnc2N2CCC(F)CC2)c1', 'pIC50', 6.64),
  ('C[C@@H]1CN(c2ncc(C(F)(F)F)cc2C(=O)Nc2ccc3c(c2)S(=O)(=O)NC3)C[C@H](C)C1(F)F', 'pIC50', 7.20),
  ('CC(C)(C)c1ccc(C(=O)Nc2cccc(S(N)(=O)=O)c2)c(N2CCCCC2)n1', 'pIC50', 5.57),
  ('CC(C)CC1CCCCCN1c1ncc(C(F)(F)F)cc1C(=O)Nc1cccc(S(N)(=O)=O)c1 (stereo not shown)', 'pIC50', 5.44),
  ('COC(=O)C1CCCCN(c2ncc(C(F)(F)F)cc2C(=O)Nc2cccc(S(N)(=O)=O)c2)C1 (stereo not shown)', 'pIC50', 5.53);

---

ASSAYED TARGET: human Nav1.8 (Homo sapiens (Human))
ASSAY METHOD TEXT: Nav1.8 Qube automated patch-clamp assay
CONDITION INFO: Nav1.8 Qube Assay; human Nav1.8 channels stably expressed in HEK 293 cells
Experimental: Qube® Assay Experimental Procedure Compounds were tested on human Nav1.8 and Nav1.5 channels stably expressed in human embryo kidney (HEK) 293 cells. […] For all Qube® experiments offline analysis was used to determine percent inhibition as a function of drug concentration. IC50 values were determined by fitting to the Hill equation.
MEASUREMENT LABEL: IC50 (nM)

INSERT INTO assay_data (compound, assayed_target, recorded_measurement) VALUES
  ('CC(C)(C)c1ccc(C(=O)Nc2cccc(S(C)(=O)=O)c2)c(N2CCCCC2)n1', 'human Nav1.8 (Homo sapiens (Human))', 4630),
  ('Cc1nc(N2CCC(F)(F)CC2)c(C(=O)Nc2cccc(C#N)c2)c(C)c1Cl', 'human Nav1.8 (Homo sapiens (Human))', 74),
  ('NS(=O)(=O)c1cccc(NC(=O)c2cc(C(F)(F)F)cnc2N2CCCC(O)CC2)c1 (centres unmarked)', 'human Nav1.8 (Homo sapiens (Human))', 2210),
  ('NS(=O)(=O)c1cccc(NC(=O)c2cc(C(F)(F)F)cnc2N2CCCOCC2)c1', 'human Nav1.8 (Homo sapiens (Human))', 448),
  ('Cc1nc(N2CCCCCC2)c(C(=O)Nc2cccc(S(C)(=O)=O)c2)c(C)c1Cl', 'human Nav1.8 (Homo sapiens (Human))', 3.5),
  ('CC(C)CS(=O)(=O)c1cccc(NC(=O)c2cc(C(F)(F)F)cnc2N2CCCCCC2)c1', 'human Nav1.8 (Homo sapiens (Human))', 2400),
  ('NS(=O)(=O)c1cccc(NC(=O)c2cc(C(F)(F)F)cnc2N2CC3CCC3(C(F)(F)F)C2)c1 (single isomer, unassigned) [Example 130]', 'human Nav1.8 (Homo sapiens (Human))', 16),
  ('C[Si](C)(C)c1cc(C(=O)Nc2cccc(S(N)(=O)=O)c2)c(N2CCCCCC2)nc1OC(F)(F)F', 'human Nav1.8 (Homo sapiens (Human))', 1220);

---

ASSAYED TARGET: human Nav1.8 (Homo sapiens (Human))
ASSAY METHOD TEXT: Nav1.8 Qube automated patch-clamp assay
CONDITION INFO: Nav1.8 Qube Assay; human Nav1.8 channels stably expressed in HEK 293 cells
IC50 listing for selected compounds.
MEASUREMENT LABEL: IC50 (nM)

INSERT INTO assay_data (compound, assayed_target, recorded_measurement) VALUES
  ('NS(=O)(=O)c1cccc(NC(=O)c2cc(C(F)(F)F)cnc2N2CC3COC(C3)C2)c1 (stereo not shown) [Example 64]', 'human Nav1.8 (Homo sapiens (Human))', 2160),
  ('NS(=O)(=O)c1cccc(NC(=O)c2cc(C(F)(F)F)cnc2N2CCc3scnc3C2)c1 [Example 55]', 'human Nav1.8 (Homo sapiens (Human))', 405),
  ('NS(=O)(=O)c1ccc(F)c(NC(=O)c2cc(C(F)(F)F)cnc2N2CCCCC2)c1 [Example 116]', 'human Nav1.8 (Homo sapiens (Human))', 3000),
  ('COc1nc(N2CCCCCC2)c(C(=O)Nc2cccc(S(N)(=O)=O)c2)cc1C(F)(F)F [Example 169]', 'human Nav1.8 (Homo sapiens (Human))', 42),
  ('CS(=O)(=O)c1cccc(NC(=O)c2cc(C(F)(F)F)cnc2N2CC3CCC(F)(F)C3C2)c1 (stereo not shown) [Example 96]', 'human Nav1.8 (Homo sapiens (Human))', 40),
  ('NC(=O)c1cccc(NC(=O)c2cc(C(F)(F)F)cnc2N2CCCCCCC2)c1 [Example 107]', 'human Nav1.8 (Homo sapiens (Human))', 73),
  ('NS(=O)(=O)c1cccc(NC(=O)c2cc(C(F)(F)F)cnc2N2CC3CCC(C2)O3)c1 [Example 57]', 'human Nav1.8 (Homo sapiens (Human))', 575),
  ('NS(=O)(=O)c1cccc(NC(=O)c2cc(C(F)(F)F)cnc2N2CCCC2)c1 [Example 63]', 'human Nav1.8 (Homo sapiens (Human))', 2000),
  ('CS(=O)(=O)c1cccc(NC(=O)c2cc(C(F)(F)F)cnc2N2CCCC(F)(F)C2)c1 [Example 102]', 'human Nav1.8 (Homo sapiens (Human))', 706),
  ('Cc1ccc(C(=O)Nc2cccc(S(N)(=O)=O)c2)c(N2CCCCCC2)n1 [Example 90]', 'human Nav1.8 (Homo sapiens (Human))', 17),
  ('C[C@H]1CN(c2ncc(C(F)(F)F)cc2C(=O)Nc2cccc(S(N)(=O)=O)c2)C[C@@H](C(F)(F)F)O1 [Example 148]', 'human Nav1.8 (Homo sapiens (Human))', 113),
  ('Cc1cc(Cl)nc(N2CCCCCC2)c1C(=O)Nc1cccc(S(N)(=O)=O)c1 [Example 29]', 'human Nav1.8 (Homo sapiens (Human))', 10),
  ('CS(=O)(=O)c1cccc(NC(=O)c2cc(C(F)(F)F)cnc2N2CCC(c3ccccc3)CC2)c1 [Example 105]', 'human Nav1.8 (Homo sapiens (Human))', 8720),
  ('CC1(O)CCCN(c2ncc(C(F)(F)F)cc2C(=O)Nc2cccc(S(N)(=O)=O)c2)CC1 (stereo not shown) [Example 53]', 'human Nav1.8 (Homo sapiens (Human))', 304),
  ('NS(=O)(=O)c1cccc(NC(=O)c2cc(C(F)(F)F)cnc2N2CCC(F)(F)CC2)c1F [Example 170]', 'human Nav1.8 (Homo sapiens (Human))', 119),
  ('NS(=O)(=O)c1cccc(NC(=O)c2cc(OC(F)(F)F)cnc2N2CCCC(F)(F)CC2)c1 [Example 39]', 'human Nav1.8 (Homo sapiens (Human))', 2.5);
